Here is a set of molecules with reported pIC50 for Tyrosine-protein kinase JAK3 (Homo sapiens), compiled from the literature.
pIC50: −log10 of the molar value.
Quantity Name: pIC50

Solved entries (count: 6):
Cc1[nH]nc2[nH]c(=O)cc(C3CCCC3)c12 : 6.17
CC(C)Nc1c(C(N)=O)cnn2cc(-c3ccccc3)cc12 : 7.82
CC1(C)[C@H](Nc2c(C(N)=O)cnn3cc(-c4ccccc4Cl)cc23)CC[C@]1(C)N : 8.89
c1ccc(-c2c(-c3ccc(OCCN4CCCC4)cc3)oc3nccc(NCCN4CCNCC4)c23)cc1 : 6.96
Cc1nn(-c2ccnc(Nc3ccc4c(c3)c(Cl)c(C)n4C)n2)cc1CN1CC(O)C1 : 7.11
CCc1cc(O)c(F)cc1-c1ccc2c(-c3nc4c([nH]3)CCN(C(=O)c3ccc(C#N)nc3)CC4)n[nH]c2c1 : 8.85

P: Cc1nnc(Nc2nc(N3CCN(C(=O)Cc4ccccc4)CC3)nn3cccc23)s1
Q: Cc1nc2cnc3ccc(-c4cc(Cl)c(O)c(Cl)c4)cc3c2n1C1CCCN(C)C1 (centres undefined)
Request: Field: lower pIC50 | Options: P / Q Pick one; state its label.
Response: P

A: Cc1cc2cnc3[nH]ccc3c2n1[C@H]1CN(C(=O)CC#N)CC[C@H]1C (racemic)
B: CN(c1ncnc2[nH]ccc12)N1CCC[C@@H](C(=O)NCC(F)(F)F)C1
C: CN(CC(F)(F)F)C(=O)C1CCCN(N(C)c2ncnc3[nH]ccc23)C1 (centres undefined)
Request: Arrange the 3 molecules from largest to smallest pIC50. Reply with the item labels sorted in the order that was asked for.
Response: A, B, C
